The next entries give measured pKi for Prostasin (Homo sapiens, UniProt Q16651).
pKi: −log10 of the molar value.
property_label: pKi

NCCCC[C@H](NC(=O)[C@@H]1C[C@@H](OC(=O)Nc2ccccc2)CN1C(=O)[C@@H](CCc1ccccc1)NC(=O)OCc1ccccc1)C(=O)c1nc2ccccc2o1: 6.89
CN(C)C(=O)O[C@@H]1C[C@@H](C(=O)N[C@@H](CCCCN)C(=O)c2nc3ccccc3o2)N(C(=O)[C@@H](CCc2ccccc2)NC(=O)OCc2ccccc2)C1: 5.81
NCCCC[C@H](NC(=O)[C@@H]1C[C@@H](OC(=O)N2CCCCC2)CN1C(=O)[C@@H](CCc1ccccc1)NC(=O)OCc1ccccc1)C(=O)c1nc2ccccc2o1: 7.54
Cc1ccc(CO[C@@H]2C[C@@H](C(=O)N[C@@H](CCCCN)C(=O)c3nc4ccccc4o3)N(C(=O)[C@@H](CCc3ccccc3)NC(=O)OCc3ccccc3)C2)cc1: 7.35
NCCCC[C@H](NC(=O)[C@@H]1C[C@@H](OC(=O)NCc2ccccc2)CN1C(=O)[C@@H](CCc1ccccc1)NC(=O)OCc1ccccc1)C(=O)c1nc2ccccc2o1: 7.22

(1) NCCCC[C@H](NC(=O)[C@@H]1[C@@H](c2ccccc2)CCN1C(=O)[C@@H](CCc1ccccc1)NC(=O)OCc1ccccc1)C(=O)c1nc2ccccc2o1
(2) C[C@H]1CCN(C(=O)[C@@H](CCc2ccccc2)NC(=O)OCc2ccccc2)[C@@H]1C(=O)N[C@@H](CCCCN)C(=O)c1nc2ccccc2o1
Q) Could you tell me which of these two has the smaller pKi figure? First: 1 Second: 2 Write down the label of the entry you select.
A) 1
(1: 6.57, 2: 7.31)

----------
# experimental_target: Prostasin (Homo sapiens)
# Sequence (Q16651 45-322 limits assumed, other chains not shown): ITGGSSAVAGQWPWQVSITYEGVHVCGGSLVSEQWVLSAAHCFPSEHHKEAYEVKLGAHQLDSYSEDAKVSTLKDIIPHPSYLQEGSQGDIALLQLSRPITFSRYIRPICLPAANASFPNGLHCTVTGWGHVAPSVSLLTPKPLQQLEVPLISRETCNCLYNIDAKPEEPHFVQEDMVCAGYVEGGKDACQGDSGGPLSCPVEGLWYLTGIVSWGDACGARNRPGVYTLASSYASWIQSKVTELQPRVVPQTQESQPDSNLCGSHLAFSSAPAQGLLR
property_label: Ki (nM)

NCCCC[C@H](NC(=O)[C@@H]1C[C@@H](OCc2ccc(F)cc2)CN1C(=O)[C@@H](CCc1ccccc1)NC(=O)OCc1ccccc1)C(=O)c1nc2ccccc2o1: 27

(A) CC(C)C[C@H](NC(=O)[C@H](Cc1cnc[nH]1)NC(=O)OCc1ccccc1)C(=O)N[C@@H](CCCCN)C(=O)c1nc2ccccc2o1
(B) NCCCC[C@H](NC(=O)[C@@H]1C[C@@H](OCC2CCCCC2)CN1C(=O)[C@@H](CCc1ccccc1)NC(=O)OCc1ccccc1)C(=O)c1nc2ccccc2o1
Q) Could you tell me which of these two has the smaller Ki figure? First: A Second: B Write down the label of the entry you select.
A) B
(B: 19 nM, A: 5720 nM)
